Cited source: PubChem BioAssay AID1159580

EXPERIMENT: chemical genetic growth profiling, strain panel (AID 1159580);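 further: tested at 20 µM; growth read once vehicle control cultures reached saturation at 30 °C; 1 = growth at the plate median or of vehicle wells; lower values mean less growth of the strain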
SETTINGS: S. cerevisiae deletion strains, growth OD, locus YLR113W, strain HOG1, stronger effect = lower value
Screen size: about 5,500 compounds; about 2,000 (36%) were called active. Inconclusive results (about 18%) are left out. Some of the results follow.
Please respond with True when measured normalized growth is strictly beneath 0.9, and with False in all other cases.

> print(dat)
                                   compound  classification
1         CC(C)=CCc1c(O)cc2oc(C)cc(=O)c2c1O            True
2  COc1cc2oc3cc(OC)c(OC)c(CC=C(C)C)c3c(=O)c2c(O)c1CC=C(C)C           False
3  COc1c(O)cc2oc3cc(O)c(CC=C(C)C)c(O)c3c(=O)c2c1CC=C(C)C            True
4  COc1ccc(-c2cc(=O)c3c(O)cc(OC)c(OC)c3o2)c(OC)c1           False
5  CCCCCC(=O)O[C@]1(C(C)=O)CCC2C3CCC4=CC(=O)CC[C@]4(C)C3CC[C@@]21C (stereo not given in full)           False
6  CCCCCCCCCCCCCCCCOP(=O)([O-])OCC[N+](C)(C)C           False
7        COc1cc(O)c2c(=O)cc(C)oc2c1CC=C(C)C            True

====

EXPERIMENT: chemical genetic growth profiling, strain panel (AID 1159580)
SETTINGS: S. cerevisiae deletion strains, growth OD, locus YIL073C, strain SPO22, stronger effect = lower value
Screen size: about 5,500 compounds; about 2,000 (36%) were called active. Inconclusive results (about 18%) are left out. The list shows a part of the results.

COMPOUND	normalized growth
CO[C@H]1C[C@H](O[C@H]2[C@H](C)[C@@H](OC3O[C@H](C)C[C@H](N(C)C)[C@H]3O)[C@@H](C)C[C@]3(CO3)C(=O)[C@H](C)[C@@H](O)[C@@H](C)[C@@H](C)OC(=O)[C@@H]2C)O[C@@H](C)[C@@H]1O (some centres not stated)	1.05
CC1(C)C2CC[C@]3(C)C(C(=O)C=C4[C@H]5C[C@@](C)(C(=O)O)CC[C@]5(C)CC[C@]43C)[C@@]2(C)CC[C@@H]1O (some centres not stated)	0.994
C=C1CC[C@H](O)C/C1=C/C=C1\CCC[C@]2(C)C([C@H](C)/C=C/[C@H](C)C(C)C)CC[C@@H]12 (some centres not stated)	0.994
CCCCOc1ccc(CC(=O)NO)cc1	0.974
CC1(C)C2CC[C@]3(C)C(C(=O)C=C4[C@@H]5C[C@@](C)(C(=O)O)CC[C@]5(C)CC[C@]43C)[C@@]2(C)CC[C@@H]1O (some centres not stated)	0.956
CNC1(C)C2CCC(C2)C1(C)C (configuration not stated)	1.04
CC1(C)C2CC[C@]3(C)C(C(=O)C=C4[C@@H]5C[C@@](C)(C(=O)O)CC[C@]5(C)CC[C@]43C)[C@@]2(C)CC[C@@H]1OC(=O)CCC(=O)O (some centres not stated)	0.91

====

EXPERIMENT: chemical genetic growth profiling, strain panel (AID 1159580)
SETTINGS: S. cerevisiae deletion strains, growth OD, locus YML094W, strain GIM5, stronger effect = lower value
Out of some 5,500 compounds screened, about 2,000 (36%) were called active. Another 18% or so got no clear call; they are omitted. The list shows a part of the results.
Please respond with Fulfilled when measured normalized growth is strictly beneath 1, and with Not fulfilled in all other cases.

> print(dat)
              compound.structure.string  classification
1  FC(F)(F)c1ccnc(-n2ccc(-c3cccs3)n2)n1       Fulfilled
2            O=C(O)C1c2ccccc2Oc2ccccc21   Not fulfilled
3     Cc1cc(=O)n2c(-c3ccc(Cl)cc3)csc2n1       Fulfilled

====

Measured normalized growth, listed per entry.
EXPERIMENT: chemical genetic growth profiling, strain panel (AID 1159580);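 further: tested at 20 µM; growth read once vehicle control cultures reached saturation at 30 °C; 1 = growth at the plate median or of vehicle wells; lower values mean less growth of the strain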
SETTINGS: S. cerevisiae deletion strains, growth OD, locus YDR162C, strain NBP2, stronger effect = lower value
The whole screen tested about 5,500 compounds, of which about 2,000 (36%) were called active. About 18% were inconclusive and are not listed. This is one part of the list.
MEASUREMENT KIND: normalized growth

> print(dat)
                                   compound   measurement.kind  reported.result
1  COc1ccc(-c2coc3c(OC)c(OC)cc(OC)c3c2=O)cc1  normalized growth            0.893
2     COc1ccc(-c2coc3c(OC)c(OC)ccc3c2=O)cc1  normalized growth            0.875
3  CC(=C(CCOP(=O)(O)O)SC(=O)c1ccccc1)N(C=O)Cc1cnc(C)nc1N  normalized growth             1.01
4  OCC(O)Cc1ccc2c(c1)OCO2 (stereo unspecified)  normalized growth             1.03
5      COc1ccc(-c2coc3c(O)c(OC)ccc3c2=O)cc1  normalized growth            0.755
6  COc1ccc(-c2coc3c(OC)c(OC)cc(O)c3c2=O)cc1  normalized growth            0.959

====

EXPERIMENT: chemical genetic growth profiling, strain panel (AID 1159580);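 further: tested at 20 µM; growth read once vehicle control cultures reached saturation at 30 °C; 1 = growth at the plate median or of vehicle wells; lower values mean less growth of the strain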
SETTINGS: S. cerevisiae deletion strains, growth OD, locus YLR113W, strain HOG1, stronger effect = lower value
Hit rate of the full screen: of about 5,500 compounds, about 2,000 (36%) were called active. About 18% were inconclusive and are not listed. This is one part of the list.
MEASUREMENT KIND: normalized growth

> print(dat)
                                    compound   measurement.kind  reported.result
 1  CC(C)[C@H](N)C(=O)OCCOCn1cnc2c(=O)[nH]c(N)nc21  normalized growth            0.977
 2                      CC(=O)CC(=O)CCC(=O)O  normalized growth             1.04
 3  Cc1cc(SCc2[nH]nc3oc(=O)cc(C)c23)c(Cl)cc1Cl  normalized growth                1
 4               C[CH2][Hg][S]c1ccccc1C(=O)O  normalized growth            0.153
 5  CCC(C(N)=O)c1ccccc1 (configuration not stated)  normalized growth             1.01
 6  C[C@H]1CC2C3CCC4=CC(=O)C=C[C@]4(C)[C@@]3(F)[C@@H](O)C[C@]2(C)[C@@]1(O)C(=O)COP(=O)(O)O (some centres not stated)  normalized growth             1.03
 7  CC(C)CC(NC(=O)CCN)C(=O)O (configuration not stated)  normalized growth            0.986
 8                             Cn1cc[nH]c1=S  normalized growth             1.03
 9                     C[N+](C)(C)CC(=O)[O-]  normalized growth            0.981
10  CCc1ccc(CCOc2ccc(CC3SC(=O)NC3=O)cc2)nc1 (configuration not stated)  normalized growth             1.01
11  C[N+](C)(C)CCOP(=O)([O-])OP(=O)(O)OC[C@H]1OC(n2ccc(N)nc2=O)[C@H](O)[C@@H]1O (some centres not stated)  normalized growth            0.978
12  COc1cc(OC)c2c(c1)O[C@H](c1ccc(OC)c(OC)c1)[C@@H](O)C2  normalized growth            0.971

====

EXPERIMENT: chemical genetic growth profiling, strain panel (AID 1159580);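 further: tested at 20 µM; growth read once vehicle control cultures reached saturation at 30 °C; 1 = growth at the plate median or of vehicle wells; lower values mean less growth of the strain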
SETTINGS: S. cerevisiae deletion strains, growth OD, locus YOR184W, strain ser1, stronger effect = lower value
Out of some 5,500 compounds screened, about 2,000 (36%) were called active. Another 18% or so got no clear call; they are omitted. Some of the results follow.
Measured normalized growth, listed per entry.

COMPOUND	normalized growth
S=C=NCc1ccccc1	0.0749 (active)
Cc1ccc2c(c1)CC[C@H]1CC(=O)CC[C@]21C	0.895 (inactive)
COc1cc2c(cc1OC)C(=O)C(CC1CCN(Cc3ccccc3)CC1)C2 (stereo not drawn)	0.776 (active)
CO[C@H]1C[C@H](O[C@H]2[C@H](C)[C@@H](OC3O[C@H](C)C[C@H](N(C)C)[C@H]3O)[C@@H](C)C[C@]3(CO3)C(=O)[C@H](C)[C@@H](O)[C@@H](C)[C@@H](C)OC(=O)[C@@H]2C)O[C@@H](C)[C@@H]1O (stereo partly drawn)	1.01 (inactive)
COc1c(CC=C(C)C)c2c(c3oc(=O)c(-c4ccc(O)cc4)c(O)c13)C=CC(C)(C)O2	0.476 (active)
COc1c(CC=C(C)C)c2c(c3oc(=O)c(-c4ccc(OC(C)=O)cc4)c(OC(C)=O)c13)C=CC(C)(C)O2	1.04 (inactive)
NC(N)=NOCC[C@H](N)C(=O)O	0.971 (inactive)
O=c1ccc2cc(O)c(O)cc2o1	0.992 (inactive)
c1ccc(CC2=NCCN2)cc1	0.899 (inactive)
C1CCc2nnnn2CC1	1.03 (inactive)
O=c1ccc2ccccc2o1	0.985 (inactive)
C=CCc1ccc2c(c1)OCO2	0.99 (inactive)
OCC(O)Cc1ccc2c(c1)OCO2 (stereo not drawn)	0.99 (inactive)
C=C1CC[C@H](O)C/C1=C/C=C1\CCC[C@]2(C)C([C@H](C)/C=C/[C@H](C)C(C)C)CC[C@@H]12 (stereo partly drawn)	0.939 (inactive)
CC(=O)O[C@@](C)(CCC=C(C)C)C1CC=C(C)CC1 (stereo partly drawn)	0.962 (inactive)
CN1C2CC3C[C@H]1C(O3)C2O (stereo partly drawn)	1.04 (inactive)
CC1(O)/C=C/C=C(\CO)C2CC(C)(C)C2(O)CC1 (stereo not drawn)	0.994 (inactive)
COc1ccc(-c2c(O)c3cc4c(c(CC=C(C)C)c3oc2=O)OC(C)(C)CC4)cc1	0.993 (inactive)
NC(=O)c1ncn([C@@H]2O[C@H](CO)[C@@H](O)[C@H]2O)c1O	1.06 (inactive)
COc1c(O)cc2oc3cc(O)c(CC=C(C)C)c(O)c3c(=O)c2c1CC=C(C)C	0.331 (active)
COc1cccc2c1CCC1CC(=O)CCC21C (stereo not drawn)	0.848 (active)
COc1ccc2c(c1)C1(C)CCC(=O)CC1CC2 (stereo not drawn)	0.952 (inactive)
COc1cc(O)c2c(=O)cc(C)oc2c1CC=C(C)C	0.587 (active)
